Attribution: ChEMBL document CHEMBL1122693

# Tested on: Human alphaherpesvirus 1
# METHOD NOTES: Compound was tested for antiviral activity against herpes simplex virus-1(KOS) in primary rabbit kidney cells
# Assay type: functional
VALUE TYPE: MIC (µg/mL)
Give just the numeric value; µg/mL need not be written.

Nc1ncnc2c([C@@H]3O[C@H](CO)[C@@H](O)[C@H]3O)[nH]nc12 [FORMYCIN] = 4

Next, consider the following molecule.
# lookup: Human alphaherpesvirus 1 MIC, key = Nc1nccc2c1ncn2[C@@H]1O[C@H](CO)[C@@H](O)[C@H]1O
40

* * *

# METHOD NOTES: Coronary vasoactivity as molar potency ratio (MPR), the quotient of ED50 of adenosine by that of the test nucleoside
# Format: functional
List of MPR values.
Lab note: jot the number down without any unit.

Solved entries:
Nc1nnnc2c1ncn2[C@@H]1O[C@H](CO)[C@@H](O)[C@H]1O = 0.15
Nc1ncnc2c([C@@H]3O[C@H](CO)[C@@H](O)[C@H]3O)[nH]nc12 = 0.043
Nc1ncnc2c1nnn2[C@@H]1O[C@H](CO)[C@@H](O)[C@H]1O = 0.042

Next, consider the following compound.
Determine from records and report MPR for Nc1ncnc2c1ccn2[C@@H]1O[C@H](CO)[C@@H](O)[C@H]1O
0.071
